assay: chemical genetic growth profiling, strain panel (AID 1159580);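 note: tested at 20 µM; growth read once vehicle control cultures reached saturation at 30 °C; 1 = growth at the plate median or of vehicle wells; lower values mean less growth of the strain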; details: S. cerevisiae deletion strains, growth OD, locus YNL153C, strain GIM3, hits give low values
Among all 5,500 compounds or so, about 2,000 (36%) were called active. About 18% were inconclusive and are not listed. Some of the results follow.
In this section, each of the compounds is paired with its reported normalized growth.
VALUE KIND: normalized growth

* OC[C@H]1O[C@@H](O[C@H]2[C@H](O)[C@@H](O)[C@@H](O)O[C@@H]2CO)[C@H](O)[C@@H](O)[C@@H]1O | 1.01
* NC(Cn1ccc(=O)c(O)c1)C(=O)O (configuration not stated) | 1.01
* CCCc1cc(=O)[nH]c(=S)[nH]1 | 1.02
* N/C(Cc1cccc2ccccc12)=N/O | 0.997
* Cc1ccc(Sc2ccc([N+](=O)[O-])cc2/C=C2\SC(=S)NC2=O)cc1 | 0.996
* C[n+]1ccccc1/C=N/O | 1.01
* O=C(O)CCCNCc1cccc2ccccc12 | 0.992

* * *

experiment: chemical genetic growth profiling, strain panel (AID 1159580); details: S. cerevisiae deletion strains, growth OD, locus YKL067W, strain YNK1, hits give low values
Out of some 5,500 compounds screened, about 2,000 (36%) were called active. Inconclusive results (about 18%) are left out. The list shows a part of the results.
VALUE KIND: normalized growth

• CSc1n[nH]c(-c2cc(C(C)(C)C)oc2C)c1C#N = 0.846
• O=S(=O)(Nc1ccccc1Oc1ccccc1)c1ccc(-c2ccno2)s1 = 0.941
• COC(=O)c1sccc1NS(=O)(=O)c1cc(Cl)cc(Cl)c1 = 0.973
• Clc1ccc(SCc2ccsc2-c2ncns2)cc1 = 0.972
• O=C(Nc1ccc(F)cc1F)c1cc(Cl)c(-n2cccc2)c(Cl)c1 = 0.928
• CC(=O)c1ccc(Cl)c(N=Cc2cc(Cl)cc(Cl)c2O)c1 = 0.227

* * *

assay: chemical genetic growth profiling, strain panel (AID 1159580); conditions: S. cerevisiae deletion strains, growth OD, locus YLL041C, strain sdh2, hits give low values
The whole screen tested about 5,500 compounds, of which about 2,000 (36%) were called active. Not shown: some 18% with an inconclusive outcome. The list shows a part of the results.
VALUE KIND: normalized growth

- CC(=O)Oc1ccc(/C=C/c2cc(OC(C)=O)cc(OC(C)=O)c2)cc1: 0.98
- CC1(C)CC2C1CC[C@]1(C)CCC3C(C(=O)O)CC(=O)O[C@@]32C1 (stereo partly drawn): 1.01
- CC(=O)Oc1ccc(O)cc1: 0.99

* * *

assay: chemical genetic growth profiling, strain panel (AID 1159580); conditions: S. cerevisiae deletion strains, growth OD, locus YJL092W, strain hpr5, hits give low values
Screen size: about 5,500 compounds; about 2,000 (36%) were called active. Roughly 18% stayed inconclusive and do not appear here. The list shows a part of the results.
In this section, each of the molecules is paired with its reported normalized growth.
VALUE KIND: normalized growth

- COC(=O)c1c(OC)cc2c(c1C)Oc1c(Cl)c(OC(C)=O)c(Cl)c(C)c1C(=O)O2: 0.992 (inactive)
- NC(=O)c1cccnc1: 0.982 (inactive)
- CC(=O)Nc1ccc(S(=O)(=O)Nc2onc(C)c2C)cc1: 0.971 (inactive)
- Nc1ccc(C(=O)O)cc1: 1.02 (inactive)
- NCC(=O)c1ccccc1: 1 (inactive)
- Nc1ccc(S(=O)(=O)NC(=O)c2ccccc2)cc1: 0.993 (inactive)
- O=P1(NCCCl)OCCCN1CCCl (stereo not given): 0.975 (inactive)
- CNCCCC12CCC(c3ccccc31)c1ccccc12: 0.971 (inactive)
- CCN(CC)CCOCCOC(=O)C1(c2ccccc2)CCCC1: 0.997 (inactive)
- CC[N+](C)(C)c1cccc(O)c1: 1.01 (inactive)

* * *

assay: chemical genetic growth profiling, strain panel (AID 1159580); conditions: S. cerevisiae deletion strains, growth OD, locus YER015W, strain faa2, hits give low values
Screen size: about 5,500 compounds; about 2,000 (36%) were called active. Inconclusive results (about 18%) are left out. This is one part of the list.
The threshold is 1. Values of normalized growth beneath it are tagged T; values meeting or exceeding it are tagged F.

- Nc1ccc(C(=O)O)cc1: F
- CC(C)=CCc1c2c(c3occ(-c4ccc(O)cc4)c(=O)c3c1O)C=CC(C)(C)O2: T
- O=C(CC(=O)c1ccccc1)c1ccccc1: T

* * *

assay: chemical genetic growth profiling, strain panel (AID 1159580); details: S. cerevisiae deletion strains, growth OD, locus YDR392W, strain spt3, hits give low values
In all, about 5,500 compounds went through this assay and about 2,000 (36%) were called active. Another 18% or so got no clear call; they are omitted. The list shows a part of the results.
In this section, each of the compounds is paired with its reported normalized growth.
VALUE KIND: normalized growth

- O=C(NCO)c1cccnc1: 0.893
- NC(=O)NC(=O)Cc1ccccc1: 0.916
- CN(C)[C@@H]1C(=O)C(C(=O)NCN2CCCC2)=C(O)[C@@]2(O)C(=O)C3=C(O)c4c(O)cccc4[C@@](C)(O)[C@H]3C[C@@H]12: 0.908
- CCOC(=O)[C@H](CCc1ccccc1)N[C@@H](C)C(=O)N1CCC[C@H]1C(=O)O: 0.923

* * *

assay: chemical genetic growth profiling, strain panel (AID 1159580);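 note: tested at 20 µM; growth read once vehicle control cultures reached saturation at 30 °C; 1 = growth at the plate median or of vehicle wells; lower values mean less growth of the strain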; conditions: S. cerevisiae deletion strains, growth OD, locus YPL031C, strain PHO85
Among all 5,500 compounds or so, about 2,000 (36%) were called active. Roughly 18% stayed inconclusive and do not appear here. Cut-off read from the data, not from the text of the source: active = normalized growth mostly below about 0.91 (no sharp cut-off); inconclusive = no clear call, values can overlap the other calls; inactive = mostly above about 0.92. The list shows a part of the results.
Outcome codes: true (1) (active), false (0) (inactive)

* NC(=S)N/N=C1/CCCc2ccccc21 | false (0)
* Cc1ccc2nc(-c3ccc4c(c3)OCCO4)cn2c1 | false (0)
* O=C(Nc1ccc(F)cc1F)c1cc(Cl)c(-n2cccc2)c(Cl)c1 | false (0)
* CCOC(=O)/C(C#N)=C(\Nc1ccc(C(=O)OCC)cc1)SC | false (0)
* Cc1c(C)c(C)c(C(=O)c2ccc(N=Cc3cc(Cl)cc(Cl)c3O)cc2)c(C)c1C | true (1)

* * *

In this section, each of the compounds is paired with its reported normalized growth.
experiment: chemical genetic growth profiling, strain panel (AID 1159580);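 note: tested at 20 µM; growth read once vehicle control cultures reached saturation at 30 °C; 1 = growth at the plate median or of vehicle wells; lower values mean less growth of the strain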; conditions: S. cerevisiae deletion strains, growth OD, locus YKL160W, strain elf1, hits give low values
Hit rate of the full screen: of about 5,500 compounds, about 2,000 (36%) were called active. Inconclusive results (about 18%) are left out. The list shows a part of the results.
VALUE KIND: normalized growth

* C/C1=C/CC(C)(C)/C=C/C/C(C)=C/CC1 | 1.02
* OC[C@H]1O[C@@H](O[C@H]2[C@H](O)[C@@H](O)[C@@H](O)O[C@@H]2CO)[C@H](O)[C@@H](O)[C@@H]1O | 1.02
* CC1(C)CC2C1CC[C@]1(CBr)CCC3C(CC(=O)O)C(=O)O[C@@]32C1 (stereo partly drawn) | 0.99
* CCN(CC)CCOC(=O)C1(C2CCCCC2)CCCCC1 | 1.01
* CC(=O)O[C@H]1CC[C@@]2(C)C(C[C@@H](OC(C)=O)[C@@]3(C)C4=CC(=O)O[C@@H](c5ccoc5)[C@]4(C)CCC23)C1(C)C (stereo partly drawn) | 1
* CC12CCC(=O)C=C1CCC1C2[C@@H](O)CC2(C)C1CC[C@]2(O)C(=O)COP(=O)(O)O (stereo partly drawn) | 0.985
* CN1CCN(C(=O)OC2c3nccnc3C(=O)N2c2ccc(Cl)cn2)CC1 (stereo not drawn) | 0.984
* O=C(O)C1=CCCNC1 | 1
* OC[C@H]1O[C@@](CO)(O[C@@H]2O[C@H](CO)[C@@H](O)[C@H](O)[C@H]2O)[C@@H](O[C@@H]2O[C@H](CO)[C@@H](O)[C@H](O)[C@H]2O)[C@@H]1O | 1.02
* NCC(=O)c1ccccc1 | 1
* Cc1cc(=O)[nH]c(=S)[nH]1 | 0.974
* Cc1c(C)c2c(c(C)c1O)CCC(C)(CCCC(C)CCCC(C)CCCC(C)C)O2 (stereo not drawn) | 1.01
* Cc1scc2c1N(C(=O)CN1CCN(C)CC1)c1ccccc1NC2=O | 0.981

* * *

experiment: chemical genetic growth profiling, strain panel (AID 1159580);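 note: tested at 20 µM; growth read once vehicle control cultures reached saturation at 30 °C; 1 = growth at the plate median or of vehicle wells; lower values mean less growth of the strain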; conditions: S. cerevisiae deletion strains, growth OD, locus YDR335W, strain msn5
Screen size: about 5,500 compounds; about 2,000 (36%) were called active. Inconclusive results (about 18%) are left out. Cut-off read from the data, not from the text of the source: active = normalized growth mostly below about 0.91 (no sharp cut-off); inconclusive = no clear call, values can overlap the other calls; inactive = mostly above about 0.92. The list shows a part of the results.
Outcome codes: 1 (yes) = active, 0 (no) = inactive

- O=P1(NCCCl)OCCCN1CCCl (stereo not given): 0 (no)
- NCC(=O)c1ccccc1: 0 (no)
- CC(C)=CCc1c2c(c3occ(-c4ccc(O)cc4)c(=O)c3c1O)C=CC(C)(C)O2: 0 (no)
- COc1ccc2cc(CCC(C)=O)ccc2c1: 0 (no)
- CS(=O)(=O)Nc1ccc([N+](=O)[O-])cc1Oc1ccccc1: 0 (no)
- CC(C)=CC1C(C(=O)O)C1(C)C (stereo not given): 0 (no)
- CN1CCN(C(=O)OC2c3nccnc3C(=O)N2c2ccc(Cl)cn2)CC1 (stereo not given): 0 (no)
- CC(=O)Oc1ccc(O)cc1: 0 (no)
- CC(C)CCCC(C)[C@H]1CCC2C3CC=C4C[C@@H](O)CC[C@]4(C)C3CC[C@@]21C (stereo not given in full): 0 (no)
- NC(=O)NC(=O)Cc1ccccc1: 0 (no)
- CC(=O)Oc1ccc(C(c2ccc(OC(C)=O)cc2)c2ccccn2)cc1: 0 (no)
- CC(C)(C)NC[C@H](O)c1ccc(O)c(CO)c1: 0 (no)
- CN(C)[C@@H]1C(=O)C(C(N)=O)=C(O)[C@@]2(O)C(=O)C3=C(O)c4c(O)cccc4[C@@](C)(O)[C@H]3[C@H](O)[C@@H]12: 0 (no)
- COC(=O)c1c(OC)cc2c(c1C)Oc1c(Cl)c(OC(C)=O)c(Cl)c(C)c1C(=O)O2: 0 (no)
- CC(=O)O[C@H]1CCC2(C)C3=C(CCC2C1(C)C)[C@@]1(C)CC[C@@H](C(C)CCC=C(C)C)[C@]1(C)CC3 (stereo not given in full): 0 (no)
- C[n+]1ccccc1/C=N/O: 0 (no)
- CC1=CC(=O)c2c(O)cccc2C1=O: 1 (yes)
- CC(C)c1ccc2c(c1)CCC1C(C)(C(N)=O)CCCC21C (stereo not given): 0 (no)
- CN[C@@H]1[C@H](O)[C@H](NC)[C@H]2O[C@@]3(O)C(=O)C[C@@H](C)O[C@H]3O[C@@H]2[C@H]1O: 0 (no)
- N=C(N)N: 0 (no)

The measured values listed here are drawn from PubChem BioAssay AID1159580.
